These measurements were taken from ChEMBL document CHEMBL1165913.

Assay: Cytotoxicity against HDF after 72 hrs by XTT assay
Type: cell-based
Settings: human, HDF cells; read-out: LC50
readout.label: CC50 at 72 h (µM)
Output spec: scalar in µM, unitless text.

Enquiry: So what's the measured CC50 at 72 h for this one? CN[C@@H]1[C@@H](O)[C@@H](O[C@@H]2[C@@H](O)[C@H](O[C@H]3O[C@H]([C@@H](C)O)[C@@H](O)[C@H](O)[C@H]3N)[C@@H](N)C[C@H]2N)OC[C@]1(C)O
Return: 2000

---

Test system: Ribosome
Test: Induction of ribosome to readthrough in-frame UGA codon of renilla/firefly PCDH15 R245X nonsense mutant gene transfected in rabbit reticulocyte assessed as reduction in overall translation at 5 to 20 uM […] dual-luciferase reporter gene assay
Assay type: subcellular
Details: Oryctolagus cuniculus
readout.label: inhibition (%)
Output spec: scalar in %, unitless text.

Enquiry: Form: Entry = C[C@H](O)[C@H]1O[C@H](O[C@H]2[C@H](O[C@@H]3O[C@H](CN)[C@@H](O)[C@H]3O)[C@@H](O)[C@H](NC(=O)[C@@H](O)CCN)C[C@@H]2N)[C@H](N)[C@@H](O)[C@@H]1O | System = Ribosome | inhibition = ____
Return: 50

Enquiry: What do we get for NC[C@H]1O[C@@H](O[C@@H]2[C@@H](O)[C@H](N)C[C@H](N)[C@H]2O[C@H]2O[C@H](CO)[C@@H](O)[C@H](O)[C@H]2N)[C@H](O)[C@@H]1O ?
Return: 10

Enquiry: What do we get for NCC[C@H](O)C(=O)N[C@@H]1C[C@H](N)[C@@H](O[C@H]2O[C@H](CO)[C@@H](O)[C@H](O)[C@H]2N)[C@H](O[C@@H]2O[C@H](CN)[C@@H](O)[C@H]2O)[C@H]1O ?
Return: 10

Enquiry: What do we get for C[C@H](O)[C@H]1O[C@H](O[C@H]2[C@H](O[C@@H]3O[C@H](CN)[C@@H](O)[C@H]3O)[C@@H](O)[C@H](N)C[C@@H]2N)[C@H](N)[C@@H](O)[C@@H]1O ?
Return: 10

---

Could you please report measured inhibition for the items listed next?
System: Ribosome
Assay: Induction of ribosome to readthrough in-frame UGA codon of renilla/firefly PCDH15 R3X nonsense mutant gene transfected in rabbit reticulocyte assessed as reduction in overall translation at 5 to 20 uM […] dual-luciferase reporter gene assay
Assay type: subcellular
Settings: Oryctolagus cuniculus
Output spec: scalar in %, unitless text.

Enquiry: So what's the measured inhibition for this one? NCC[C@H](O)C(=O)N[C@@H]1C[C@H](N)[C@@H](O[C@H]2O[C@H](CO)[C@@H](O)[C@H](O)[C@H]2N)[C@H](O[C@@H]2O[C@H](CN)[C@@H](O)[C@H]2O)[C@H]1O
Return: 10

Enquiry: What do we get for NC[C@H]1O[C@@H](O[C@@H]2[C@@H](O)[C@H](N)C[C@H](N)[C@H]2O[C@H]2O[C@H](CO)[C@@H](O)[C@H](O)[C@H]2N)[C@H](O)[C@@H]1O ?
Return: 10

Enquiry: What do we get for C[C@H](O)[C@H]1O[C@H](O[C@H]2[C@H](O[C@@H]3O[C@H](CN)[C@@H](O)[C@H]3O)[C@@H](O)[C@H](N)C[C@@H]2N)[C@H](N)[C@@H](O)[C@@H]1O ?
Return: 10

Enquiry: What do we get for C[C@H](O)[C@H]1O[C@H](O[C@H]2[C@H](O[C@@H]3O[C@H](CN)[C@@H](O)[C@H]3O)[C@@H](O)[C@H](NC(=O)[C@@H](O)CCN)C[C@@H]2N)[C@H](N)[C@@H](O)[C@@H]1O ?
Return: 50

---

Target: Bacterial 70S ribosome
Assay: Inhibition of ribosomal activity in Escherichia coli strain B assessed as inhibition of translation after 60 mins by coupled transcription/translation assay
readout.label: log10 of IC50 (log10 of the value in nM)
log10 IC50, nM

Enquiry: So what's the measured log10 of IC50 for this one? CN[C@@H]1[C@@H](O)[C@@H](O[C@@H]2[C@@H](O)[C@H](O[C@H]3O[C@H]([C@@H](C)O)[C@@H](O)[C@H](O)[C@H]3N)[C@@H](N)C[C@H]2N)OC[C@]1(C)O
Return: 0.95

Enquiry: What do we get for NC[C@H]1O[C@@H](O[C@@H]2[C@@H](O)[C@H](N)C[C@H](N)[C@H]2O[C@H]2O[C@H](CO)[C@@H](O)[C@H](O)[C@H]2N)[C@H](O)[C@@H]1O ?
Return: 2.66

Enquiry: What do we get for C[C@H](O)[C@H]1O[C@H](O[C@H]2[C@H](O[C@@H]3O[C@H](CN)[C@@H](O)[C@H]3O)[C@@H](O)[C@H](N)C[C@@H]2N)[C@H](N)[C@@H](O)[C@@H]1O ?
Return: 3.05

Enquiry: What do we get for NCC[C@H](O)C(=O)N[C@@H]1C[C@H](N)[C@@H](O[C@H]2O[C@H](CO)[C@@H](O)[C@H](O)[C@H]2N)[C@H](O[C@@H]2O[C@H](CN)[C@@H](O)[C@H]2O)[C@H]1O ?
Return: 2.20

Enquiry: What do we get for C[C@H](O)[C@H]1O[C@H](O[C@H]2[C@H](O[C@@H]3O[C@H](CN)[C@@H](O)[C@H]3O)[C@@H](O)[C@H](NC(=O)[C@@H](O)CCN)C[C@@H]2N)[C@H](N)[C@@H](O)[C@@H]1O ?
Return: 2.99

---

Assay: Cytotoxicity against HEK293 cells after 48 hrs by XTT assay
Format: cell-based
Details: human, HEK293 cells; read-out: LC50
Values of CC50 at 48 h strictly less than 20 mM map to YES, and values of at least 20 mM map to NO.

Enquiry: Strictly below 20 mM in CC50 at 48 h? NCC[C@H](O)C(=O)N[C@@H]1C[C@H](N)[C@@H](O[C@H]2O[C@H](CO)[C@@H](O)[C@H](O)[C@H]2N)[C@H](O[C@@H]2O[C@H](CN)[C@@H](O)[C@H]2O)[C@H]1O
Return: YES

Enquiry: What do we get for CN[C@@H]1[C@@H](O)[C@@H](O[C@@H]2[C@@H](O)[C@H](O[C@H]3O[C@H]([C@@H](C)O)[C@@H](O)[C@H](O)[C@H]3N)[C@@H](N)C[C@H]2N)OC[C@]1(C)O ?
Return: YES

Enquiry: What do we get for NC[C@H]1O[C@@H](O[C@@H]2[C@@H](O)[C@H](N)C[C@H](N)[C@H]2O[C@H]2O[C@H](CO)[C@@H](O)[C@H](O)[C@H]2N)[C@H](O)[C@@H]1O ?
Return: NO

Enquiry: What do we get for C[C@H](O)[C@H]1O[C@H](O[C@H]2[C@H](O[C@@H]3O[C@H](CN)[C@@H](O)[C@H]3O)[C@@H](O)[C@H](NC(=O)[C@@H](O)CCN)C[C@@H]2N)[C@H](N)[C@@H](O)[C@@H]1O ?
Return: YES

Enquiry: What do we get for C[C@H](O)[C@H]1O[C@H](O[C@H]2[C@H](O[C@@H]3O[C@H](CN)[C@@H](O)[C@H]3O)[C@@H](O)[C@H](N)C[C@@H]2N)[C@H](N)[C@@H](O)[C@@H]1O ?
Return: NO

---

Assay: Cytotoxicity against HDF after 72 hrs by XTT assay
Format: cell-based
Conditions: human, hdf, 72 h; read-out: LC50 (the source's name)
readout.label: CC50
Lab note: write values as number then unit, every time.

Enquiry: So what's the measured CC50 for this one? GENTAMICIN
Return: 3.8 mM

---

Test system: Ribosome
Test: Induction of ribosome to readthrough in-frame UGA codon of renilla/firefly CFTR G542X nonsense mutant gene transfected in rabbit reticulocyte assessed as reduction in overall translation at 5 to 20 uM […] dual-luciferase reporter gene assay
Format: subcellular
Details: Oryctolagus cuniculus
readout.label: inhibition
Lab note: write values as number then unit, every time.

Enquiry: So what's the measured inhibition for this one? C[C@H](O)[C@H]1O[C@H](O[C@H]2[C@H](O[C@@H]3O[C@H](CN)[C@@H](O)[C@H]3O)[C@@H](O)[C@H](N)C[C@@H]2N)[C@H](N)[C@@H](O)[C@@H]1O
Return: 10%

Enquiry: What do we get for NC[C@H]1O[C@@H](O[C@@H]2[C@@H](O)[C@H](N)C[C@H](N)[C@H]2O[C@H]2O[C@H](CO)[C@@H](O)[C@H](O)[C@H]2N)[C@H](O)[C@@H]1O ?
Return: 10%

Enquiry: What do we get for C[C@H](O)[C@H]1O[C@H](O[C@H]2[C@H](O[C@@H]3O[C@H](CN)[C@@H](O)[C@H]3O)[C@@H](O)[C@H](NC(=O)[C@@H](O)CCN)C[C@@H]2N)[C@H](N)[C@@H](O)[C@@H]1O ?
Return: 50%

Enquiry: What do we get for NCC[C@H](O)C(=O)N[C@@H]1C[C@H](N)[C@@H](O[C@H]2O[C@H](CO)[C@@H](O)[C@H](O)[C@H]2N)[C@H](O[C@@H]2O[C@H](CN)[C@@H](O)[C@H]2O)[C@H]1O ?
Return: 10%
